target-desc: T1, human CD73 on cells (CD73-transfected HEK cells; native on PBMCs; OCI-AML3 cells) (human, UniProt P21589 27-549)
T1 construct: also called NT5E; gene ID 4907
T1 sequence: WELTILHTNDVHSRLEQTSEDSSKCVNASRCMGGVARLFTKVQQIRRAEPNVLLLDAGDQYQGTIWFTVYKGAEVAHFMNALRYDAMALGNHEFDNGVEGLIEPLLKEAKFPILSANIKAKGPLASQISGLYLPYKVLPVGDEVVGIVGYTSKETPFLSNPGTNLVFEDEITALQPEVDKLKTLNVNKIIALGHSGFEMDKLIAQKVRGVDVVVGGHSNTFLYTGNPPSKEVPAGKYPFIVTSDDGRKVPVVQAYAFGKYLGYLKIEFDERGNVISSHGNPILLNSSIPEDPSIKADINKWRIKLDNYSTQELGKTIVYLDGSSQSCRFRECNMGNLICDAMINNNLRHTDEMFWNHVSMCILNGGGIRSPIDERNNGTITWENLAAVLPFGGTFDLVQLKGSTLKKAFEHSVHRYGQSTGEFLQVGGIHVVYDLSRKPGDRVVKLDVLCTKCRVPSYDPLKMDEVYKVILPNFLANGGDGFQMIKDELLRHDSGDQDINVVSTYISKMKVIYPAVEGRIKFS
assay-details: flow cytometry, human CD73-expressing cells; competitor: MEDI9447
Description: The binding specificities of the purified hcAbs were determined by flow cytometry using HEK cells transiently co-transfected with expression vectors for GFP and either mouse CD73, human CD73 or a control protein (CD39). 1×10⁶ cells were incubated with 10 μl of the Nb-rbIgG hcAb containing HEK-6E cell supernatants for 30 min at 4° C. […] The cells were resuspended in PBS and analyzed by flow cytometry on FACS Canto or FACS Celesta (BD Biosciences, Heidelberg). […]
Where percent inhibition of binding equals or exceeds 90%, the correct label is 1 (yes); where it does not, the label is 0 (no).

| binder | qualitative-label |
| --- | --- |
| SB116 rabbit IgG hcAb (Fc fusion, also called SB116-rbFc; dimeric SB116 Fc construct; not shown: hinge and Fc-domains of rabbit IgG) heavy: QVKLQESGGGRVQTGGSLRLSCAASGISFSITTMYWYRQAPGEQRQLVALITDRGNTYYVDSVKGRFTISRDDSKNTVYLQMNDLKPEDTAVYFCNSIPGNDWGQGTQVTVSS | 1 (yes) |
| SB143 rabbit IgG hcAb (Fc fusion, not shown: hinge and Fc-domains of rabbit IgG) heavy: QVQLVESGGGLVQAGGSLRLSCAASGRTFSRSTMGWFRQAPGKERVFVAAIRWIGGTTTYGDSVKGRFTISVDNAKNTLYLQMNSLKPEDTAVYYCAATAGGPYYLGGRDILYDYWGQGTQVTVSS | 1 (yes) |
| SB141 rabbit IgG hcAb (Fc fusion, not shown: hinge and Fc-domains of rabbit IgG) heavy: QVQLVESGGGLVQPGGSLRLSCAASGFTFINYHMSWLRQAPGKGLEWVSEIHSRGDITSYTNSVKGRFTISRDNAKNTLYLQMNSLKFDDTAVYYCARSRDLFNEGEYDYWGRGTQVTVSS | 0 (no) |
| SB139 rabbit IgG hcAb (Fc fusion, not shown: hinge and Fc-domains of rabbit IgG) heavy: QVQLQESGGGLVQAGGSLRLSCAASENIFNIYGMGWYRQAPGKLRDLVAKITSGGRTTYADSVKGRFTISGDNAKNTVYLQMNSLKPEDTAVYYCNSYYYWGQGTQVTVSS | 0 (no) |

Turning to the following binder.
Prompt: Form field: percent inhibition of binding at least 90%? Entry: SB121 rabbit IgG hcAb (Fc fusion, not shown: hinge and Fc-domains of rabbit IgG) heavy: QVQLQESGGGLVQAGGSLRLSCAASGSIGSIIAMGWYRQGPGKQRELVARMFTDDGSTNYDDSVKGRFTISRDSAGTTVYLQMNSLKPEDTAVYYCNAQRRWNAYWGPGTQVTVSS
Response: 0 (no)
